Every entry's value here was drawn from the MegaScale stability set (Tsuboyama et al. 2023).

B1: EHEE_rd2_0191 (parent)
chain: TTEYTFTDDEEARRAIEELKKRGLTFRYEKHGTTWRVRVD

variants of: B1; assay: folding stability dG (cDNA display proteolysis); higher = more stable; conditions: PBS, room temperature
Binary classification by folding stability dG, with 2 kcal/mol as an inclusive lower bound for TRUE; all other cases are FALSE.

Example cases with answers are listed next.
TTEYTFTDDEEARRAIEELKKRNLTFRYEKHGTTWRVRVD: FALSE
TTEYTFTDDEEARNAIEELKKRGLTFRYEKHGTTWRVRVD: FALSE
TTEYTFTDEEEARRAIEELKKRGLTFRYEKHGTTWRVRVD: TRUE
TTPYTFTDDEEARRAIEELKKRGLTFRYEKHGTTWRVRVD: FALSE
TTEYTFTDDEEARRAIEELKKRGLTFRYEKHGTTWRCRVD: FALSE

Quick check, folding stability dG >= 2 kcal/mol? TTEYTFTDDEEARRAIEELKKRGLTHRYEKHGTTWRVRVD
FALSE

Can TTEYTFTDDEEARRAIEELKKRGLSFRYEKHGTTWRVRVD be said to have folding stability dG at or above 2 kcal/mol?
TRUE

Entry TTEYTFTDDEEARRAIEYLKKRGLTFRYEKHGTTWRVRVD : is its folding stability dG no less than 2 kcal/mol?
TRUE

Kindly determine if folding stability dG recorded for TTEYTFTDDEEANRAIEELKKRGLTFRYEKHGTTWRVRVD is above or exactly 2 kcal/mol.
FALSE
